Kindly state binding signal for each of the entries shown.
# Test system: mouse IgG (Mus musculus)
# Test Details: filter
# Condition Set: specificity control, 100 nM protein

[ask] Bench note: what binding signal did GGGAGAAUUCCGACCAGAAGUUCGAUACGCCGUGGGGUGACGUUGGCUACCUUUCCUCUCUCCUCCUUCUUCU [SEQ ID NO: 5 RNA aptamer] show?
[reply] 0.5 % bound

[ask] Bench note: what binding signal did GGGAGAAUUCCGACCAGAAGCAAAUUGCCGGGCCUUGGAAGCCAAGUCGCUUUCCUCUCUCCUCCUUCUUCU [SEQ ID NO: 3 RNA aptamer] show?
[reply] 1.8 % bound

[ask] Bench note: what binding signal did GGGAGAAUUCCGACCAGAAGUUUUUAAACCGCGCCUUGGAAGCGUACGUUGGCCUUUCCUCUCUCCUCCUUCUUCU [SEQ ID NO: 2 RNA aptamer] show?
[reply] 0.5 % bound

[ask] Bench note: what binding signal did GGGAGAAUUCCGACCAGAAGAAGUUCGAUACGCCGUGGGGUGACGUUGGCUGCCCUUUCCUCUCUCCUCCUUCUUCU [SEQ ID NO: 1 RNA aptamer] show?
[reply] 0.6 % bound

[ask] Bench note: what binding signal did GGGAGAAUUCCGACCAGAAGCGCAAGCCGGCCCUUGGAAGGCUAGUCGGUCUUUCCUCUCUCCUCCUUCUUCU [SEQ ID NO: 4 RNA aptamer] show?
[reply] 0.5 % bound
